- Tested on: NCI-H522 lung
- Assay summary: NCI tumour cell line growth inhibition, 48 h
Entries and their TGI values follow.
# number only, unit µM dropped from output

Check out these entries, answers already filled in.
COc1ccc(CN2CCC/C=C/CC(Cl)(Cl)C2=O)cc1; 59.4
COc1cnc2c(c1)C(=O)c1c-2n(CCCN2CCN(C)CC2)c(=O)c2cc([N+](=O)[O-])ccc12; 2.39
C=C1C(=O)O[C@H]2[C@H]1CC/C(COC(=O)NCC(C)c1ccc(CC(C)C)cc1)=C\CC[C@@]1(C)O[C@@H]21 (some centres undefined); 1.77

So, CC1(C)CC2C(=O)c3ccccc3NC2c2ccccc21 (centres undefined) ? Its TGI was 4.49

So, COC(=O)[C@H](Cc1ccccc1)NC(=O)CCCCCCC(=O)NO ? Its TGI was 30.6

So, CCCCn1c(-c2ccc(C(=O)O/N=C(\N)c3ccc4c(c3)OCO4)cc2)nc(-c2ccccc2)c1-c1ccccc1 ? Its TGI was 4.89

So, COc1ccc(NC(=S)NC(=O)c2ccc3c(c2)Sc2ccccc2O3)c([N+](=O)[O-])c1 ? Its TGI was 35.3

====

- Tested on: 786-0 renal
- Assay summary: NCI tumour cell line growth inhibition, 48 h; in the data active means GI50 below about 0.43 µM; inactive means the rest
Tick one outcome: active, inactive

As a guide, the following entries are already answered.
O=C1OCC2=C1C(c1ccccc1)c1cc3c(cc1N2CCO)OCO3 (centres undefined); inactive
COc1ccc2c(c1)/C(=C/c1cc(OC)c(OC)c(OC)c1)C(=O)N2; active
CN(C)C(=O)O[C@H]1CN[C@H](C#Cc2cc3ncnc(Nc4ccc(OCc5cccc(F)c5)c(Cl)c4)c3s2)C1; inactive
CCCCn1c(-c2ccc(C(=O)O/N=C(\N)c3ccc4c(c3)OCO4)cc2)nc(-c2ccccc2)c1-c1ccccc1; inactive
COc1ccc(C(=O)c2ccc([As]=O)cc2)cc1 (centres undefined); active

Outcome? O=c1c(F)cn(Cc2ccccc2CCl)c(=O)n1Cc1ccccc1CCl inactive

====

- Test system: MDA-MB-231 breast
- Assay summary: NCI tumour cell line growth inhibition, 48 h
Property: TGI (µM)
# number only, unit µM dropped from output

O=c1c(F)cn(Cc2ccccc2CCl)c(=O)n1Cc1ccccc1CCl; 4.92
CN1/C(=C\C=C\C2=[N+](C)c3ccccc3C2(C)C)C(C)(C)c2ccccc21; 1.58
c1ccc2[nH]c(-c3ccc(Nc4nc(N5CCCCC5)nc(N5CCOCC5)n4)cc3)nc2c1; 7.52

So, COC(=O)c1cc(C#N)[nH]c1-c1cc(Br)cs1 ? Its TGI was 51.7

====

- Test system: MDA-MB-435
Tick one outcome: active, inactive

As a guide, the following entries are already answered.
CN1/C(=C\C=C\C2=[N+](C)c3ccccc3C2(C)C)C(C)(C)c2ccccc21; active
COc1cc(NCCCCCCCNC(C)C)c2nccc(C)c2c1; inactive

Outcome? C(=N\Nc1nnn(Cc2ccccc2)n1)/c1ccccc1 active

Outcome? CCC1=CC2CN(C1)Cc1c([nH]c3ccccc13)[C@@](C(=O)OC)(c1cc3c(cc1OC)N(C)[C@H]1[C@@](O)(C(=O)OC)[C@H](OC(C)=O)[C@]4(CC)C=CCN5CC[C@]31[C@@H]54)C2 (some centres undefined) active

Outcome? CC(C)(C)c1cc(C=C(C#N)C#N)cc(C(C)(C)C)c1O active

Outcome? Oc1ccccc1-c1nn(CNc2ccccc2Cl)c(=S)o1 inactive

Outcome? O=c1oc2ccc(I)cc2c(=O)n1-c1ccc(Cl)cc1F inactive

Outcome? C=C(CNCCc1ccc(O)cc1)[C@@H]1CC[C@]2(COC3CCCCO3)CC[C@]3(C)[C@H](CC[C@@H]4[C@@]5(C)CCC(NCCO)C(C)(C)[C@@H]5CC[C@]43C)[C@@H]12 (some centres undefined) inactive

Outcome? O=C(N/N=C/c1ccccc1O)c1ccccc1 inactive

====

- Tested on: NCI-H522 lung
- Assay summary: NCI tumour cell line growth inhibition, 48 h
Entries and their TGI values follow.
# number only, unit µM dropped from output

C[C@H]1SC(c2ccc(Cl)cc2Cl)N(NC(=O)c2ccncc2)C1=O (stereo not given in full); 60.5
OC(c1cc2ccc(C(F)(F)F)cc2c2cc(C(F)(F)F)ccc12)C1CCCCN1 (stereo not given); 3.16
C=Cc1ccccc1C1(O)C=CC(OC)(OC)C=C1; 23.9

As a next step, examine the compound that follows.
So, O=c1oc2ccc(I)cc2c(=O)n1-c1ccc(Cl)cc1F ? Its TGI was 9.72

====

Entries and their TGI values follow.
- Test system: DMS 114 small cell lung
- Assay summary: NCI tumour cell line growth inhibition, 48 h

Check out these entries, answers already filled in.
Cc1nc(C(N)=S)sc1C(=O)/C=C/c1c(O)ccc2ccccc12; 98.1 µM
CC(C)(C)C(=O)[CH-]C(=O)C(C)(C)C.CC(C)(C)C(=O)[CH-]C(=O)C(C)(C)C.CN(C)c1ccc([O-])cc1.CN(C)c1ccc([O-])cc1.[Ti+4]; > 100 µM
CCOC(=O)/C(O)=C1\C(=O)N(C)C(=O)C1c1cccc(OC)c1 (stereo not given); > 100 µM
C=C(C)C1C/C=C(/C)CCCC2(CCC3=C(CC(C(=C)C)C/C=C(/C)CCC3)O2)C(=O)C1 (stereo not given); > 100 µM

So, Cc1c(C(=O)O)oc2ccc([N+](=O)[O-])cc12 ? Its TGI was > 100 µM

So, C=CC(OCC)(OCC)OCC ? Its TGI was 31.2 µM

So, CC(=O)OCC1OC(N2C(=O)C(=O)c3ccccc32)C(OC(C)=O)C(OC(C)=O)C1OC(C)=O (stereo not given) ? Its TGI was > 100 µM

So, O=C(O)c1ccc(C2C(=O)N[C@@H]3CCC[C@H]23)cc1 (stereo not given in full) ? Its TGI was > 100 µM

So, CCCCN(CC)CC(C(C)=O)c1c(O)c2ccccc2oc1=O (stereo not given) ? Its TGI was > 100 µM

So, CN(C)CCC(=O)/C=C\c1ccccc1 ? Its TGI was 33.7 µM

====

Entries and their GI50 values follow.
- Tested on: MALME-3M melanoma
- Assay summary: NCI tumour cell line growth inhibition, 48 h

O=S(=O)(CCCl)c1ccc(Cl)cc1; 2.23 µM
O=[N+]([O-])c1ccc(Sc2c3ccccc3nc3cc(Cl)ccc23)cc1; > 100 µM
COc1ccc(CN2C3CC2CN(c2ccc(-c4cc(OCC(C)(C)O)cn5ncc(C#N)c45)cn2)C3)cn1; > 100 µM

So the reported GI50 for C[C@H]1CCCC(O)C(O)[C@@H]2C[C@H](O[Si](C)(C)C(C)(C)C)C[C@H]2[C@H](O[Si](C)(C)C(C)(C)C)C(O)C(O)C(=O)O1 (some centres undefined) , on MALME-3M melanoma, turned out to be 11.7 µM

====

Test system U251 CNS, GI50 listed for each of the compounds.

Check out these entries, answers already filled in.
O=c1oc2ccc(I)cc2c(=O)n1-c1ccc(Cl)cc1F; 1.51 µM
O=S(=O)(CCCl)c1ccc(Cl)cc1; 10.1 µM
Cc1cc(I)cc(CN(C)CCCN2CCCC2)c1O; 19.4 µM
O=C(N/N=C/c1ccccc1O)c1ccccc1; 1.94 µM
Cc1ccc(NC(=O)c2cc(S(=O)(=O)N3C(=O)NC(=O)NS3(=O)=O)c(S)cc2Cl)cc1; 27.1 µM

So the reported GI50 for C=C1C(=O)O[C@H]2[C@H]1CC/C(COC(=O)NCC(C)c1ccc(CC(C)C)cc1)=C\CC[C@@]1(C)O[C@@H]21 (stereo partly drawn) , on U251 CNS, turned out to be 4.32 µM

So the reported GI50 for Cc1ccc(-c2nc3nc(-c4ccc(F)cc4)nc(N4CCCNCC4)c3o2)cc1 , on U251 CNS, turned out to be 1.33 µM

So the reported GI50 for CN(C)C(=O)O[C@H]1CN[C@H](C#Cc2cc3ncnc(Nc4ccc(OCc5cccc(F)c5)c(Cl)c4)c3s2)C1 , on U251 CNS, turned out to be 14.7 µM

So the reported GI50 for C=C1C(=O)O[C@H]2[C@H]1CC/C(C=Nc1c(N)cc(C(F)(F)F)cc1Br)=C\CC[C@@]1(C)O[C@@H]21 , on U251 CNS, turned out to be 1.69 µM

So the reported GI50 for COc1cc(NCCCCCCCNC(C)C)c2nccc(C)c2c1 , on U251 CNS, turned out to be 11 µM

So the reported GI50 for O=[N+]([O-])c1ccc(Sc2c3ccccc3nc3cc(Cl)ccc23)cc1 , on U251 CNS, turned out to be > 100 µM

So the reported GI50 for O=c1c(F)cn(Cc2ccccc2CCl)c(=O)n1Cc1ccccc1CCl , on U251 CNS, turned out to be 1.55 µM

So the reported GI50 for COc1ccc(OC)c(Cn2cc3c(c2-c2ccccc2)CCc2cnoc2-3)c1 , on U251 CNS, turned out to be 5.38 µM

From: PubChem BioAssay (NCI)
